Test system: PAK2;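 note: KINOMEscan kinase panel screen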
Measurement Context: concentration: 1 μM,replicates: in singlicate; n = 1
Below: a set of entries, each annotated with reported %Inh.
Only the number, expressed in %, is required.

Nc1nccc(-c2ccc3c(N)n[nH]c3c2)n1 [GSK1034945] : 11

Can you look up the measured %Inh of CC(=O)c1c(-c2ccncc2)[nH]c(-c2ccncc2)c1C [GW493036] for me?
19

Can you look up the measured %Inh of `O=C(Nc1cccc(C(F)(F)F)c1)c1cccc(Oc2ccc3nccn3n2)c1` for me?
0

Can you look up the measured %Inh of COc1cc(Nc2nccc(N3CCC(NC(=O)c4cccc(C#N)c4)C3)n2)cc(OC)c1OC (stereo not drawn) [GSK1379751] for me?
0

Can you look up the measured %Inh of CCn1c(-c2nonc2N)nc2cncc(CNC3CCNCC3)c21.Cl [SB-747651] for me?
51

Can you look up the measured %Inh of `O=C(NOCC1CC1)c1cc(Br)c(F)c(F)c1Nc1ccc(I)cc1Cl` for me?
12
